B1: CPEB3 Ribozyme (parent)
chain: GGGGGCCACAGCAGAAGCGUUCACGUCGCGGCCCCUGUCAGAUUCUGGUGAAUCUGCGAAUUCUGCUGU

Variants of: B1
assay_summary: self-cleavage, relative activity (ratio to wild type); higher = more cleavage; co-transcriptional
Note to self: values exactly at 0.6 are YES. So self-cleavage at or above 0.6 is YES, below is NO.

Ask: Textbook exercise: given the entry G3U C33U , state whether its self-cleavage is greater than or equal to 0.6.
Result: NO

Ask: Textbook exercise: given the entry C29U G31A , state whether its self-cleavage is greater than or equal to 0.6.
Result: NO

Ask: Textbook exercise: given the entry G3U C6G , state whether its self-cleavage is greater than or equal to 0.6.
Result: NO

Ask: Textbook exercise: given the entry C22U G41A , state whether its self-cleavage is greater than or equal to 0.6.
Result: NO

Ask: Textbook exercise: given the entry G3A G30A , state whether its self-cleavage is greater than or equal to 0.6.
Result: NO

Ask: Textbook exercise: given the entry G14C C29A , state whether its self-cleavage is greater than or equal to 0.6.
Result: NO

Ask: Textbook exercise: given the entry A15G C45U , state whether its self-cleavage is greater than or equal to 0.6.
Result: YES

Ask: Textbook exercise: given the entry C7A G11A , state whether its self-cleavage is greater than or equal to 0.6.
Result: NO

Ask: Textbook exercise: given the entry G31C G47U , state whether its self-cleavage is greater than or equal to 0.6.
Result: NO

Ask: Textbook exercise: given the entry G30A G50A , state whether its self-cleavage is greater than or equal to 0.6.
Result: YES

Ask: Textbook exercise: given the entry C54A , state whether its self-cleavage is greater than or equal to 0.6.
Result: YES

Ask: Textbook exercise: given the entry C35U U69G , state whether its self-cleavage is greater than or equal to 0.6.
Result: YES

Ask: Textbook exercise: given the entry C45U C54A , state whether its self-cleavage is greater than or equal to 0.6.
Result: YES

Ask: Textbook exercise: given the entry C34A U53G , state whether its self-cleavage is greater than or equal to 0.6.
Result: NO

Ask: Textbook exercise: given the entry C29U U55C , state whether its self-cleavage is greater than or equal to 0.6.
Result: NO

Ask: Textbook exercise: given the entry U49A U61A , state whether its self-cleavage is greater than or equal to 0.6.
Result: YES

Ask: Textbook exercise: given the entry C35A U53C , state whether its self-cleavage is greater than or equal to 0.6.
Result: NO

Ask: Textbook exercise: given the entry G2A A13G , state whether its self-cleavage is greater than or equal to 0.6.
Result: NO

Ask: Textbook exercise: given the entry C6U U61C , state whether its self-cleavage is greater than or equal to 0.6.
Result: YES

Ask: Textbook exercise: given the entry A16C C33A , state whether its self-cleavage is greater than or equal to 0.6.
Result: NO

Ask: Textbook exercise: given the entry G14C C22U , state whether its self-cleavage is greater than or equal to 0.6.
Result: NO

Ask: Textbook exercise: given the entry G1A U20A , state whether its self-cleavage is greater than or equal to 0.6.
Result: NO

Ask: Textbook exercise: given the entry A8C G17C , state whether its self-cleavage is greater than or equal to 0.6.
Result: NO

Ask: Textbook exercise: given the entry C35A G48U , state whether its self-cleavage is greater than or equal to 0.6.
Result: NO

Ask: Textbook exercise: given the entry A15U G56C , state whether its self-cleavage is greater than or equal to 0.6.
Result: NO

Ask: Textbook exercise: given the entry U21G C54G , state whether its self-cleavage is greater than or equal to 0.6.
Result: NO

Ask: Textbook exercise: given the entry G47U U69A , state whether its self-cleavage is greater than or equal to 0.6.
Result: YES

Ask: Textbook exercise: given the entry C33U C66G , state whether its self-cleavage is greater than or equal to 0.6.
Result: YES

Ask: Textbook exercise: given the entry G1C U69A , state whether its self-cleavage is greater than or equal to 0.6.
Result: NO

Ask: Textbook exercise: given the entry G17U C35U , state whether its self-cleavage is greater than or equal to 0.6.
Result: NO

Ask: Textbook exercise: given the entry G2C G19C , state whether its self-cleavage is greater than or equal to 0.6.
Result: NO

Ask: Textbook exercise: given the entry G56A C57A , state whether its self-cleavage is greater than or equal to 0.6.
Result: NO

Ask: Textbook exercise: given the entry G11C G56A , state whether its self-cleavage is greater than or equal to 0.6.
Result: NO

Ask: Textbook exercise: given the entry U20G A60C , state whether its self-cleavage is greater than or equal to 0.6.
Result: NO

Ask: Textbook exercise: given the entry U44A C57G , state whether its self-cleavage is greater than or equal to 0.6.
Result: NO

Ask: Textbook exercise: given the entry A23G C32U , state whether its self-cleavage is greater than or equal to 0.6.
Result: YES

Ask: Textbook exercise: given the entry G17C C57A , state whether its self-cleavage is greater than or equal to 0.6.
Result: NO

Ask: Textbook exercise: given the entry A42C U62C , state whether its self-cleavage is greater than or equal to 0.6.
Result: YES

Ask: Textbook exercise: given the entry G56C U67A , state whether its self-cleavage is greater than or equal to 0.6.
Result: YES

Ask: Textbook exercise: given the entry G11A U46G , state whether its self-cleavage is greater than or equal to 0.6.
Result: YES

Ask: Textbook exercise: given the entry C18A U69A , state whether its self-cleavage is greater than or equal to 0.6.
Result: NO

Ask: Textbook exercise: given the entry G37U U67C , state whether its self-cleavage is greater than or equal to 0.6.
Result: NO

Ask: Textbook exercise: given the entry C6A G17U , state whether its self-cleavage is greater than or equal to 0.6.
Result: NO

Ask: Textbook exercise: given the entry G1A G58C , state whether its self-cleavage is greater than or equal to 0.6.
Result: NO

Ask: Textbook exercise: given the entry G2C G50C , state whether its self-cleavage is greater than or equal to 0.6.
Result: NO
